System: SERPINA7 (gene 6906)
PROTOCOL TEXT: CCTE_GLTED_hTBG: CCTE's human Thyroxine-binding Globulin (TBG) Inhibition Assay, Great Lakes Toxicology and Ecology Division (GLTED) Lab (AID 2284343);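 also: active chemicals lower fluorescence versus DMSO baseline by displacing probe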
Calls of active or inactive are those of the source. The calls were made as follows: active = hit-call score of the fitted dose curve at least 0.9, where 1 is the maximum; inconclusive = response in the unintended direction; inactive = score below 0.9.
Pick one and only one: y for active, n for inactive

Task: Could you please tell me the result logged for `CC[C@H](C)[C@@H](C(=O)O)n1sc2ccccc2c1=O` in this assay?
Output: y

Task: Recorded test outcome, item `Cc1cc(C)c(O)c(C)c1`
Output: n

Task: Short answer needed: outcome of this test for `O=C(O)c1ccccc1C(c1ccc(O)cc1)c1ccc(O)cc1` ?
Output: y

Task: What classification did NC(=O)N1C(=O)C(C(=O)c2cc(Cl)cs2)c2cc(F)c(Cl)cc21 (centres undefined) end up with in this test?
Output: y

====

Read-out: Vascular cell adhesion molecule 1 (VCAM1), VCAM1 (gene 7412)
PROTOCOL TEXT: BSK_CASM3C_VCAM1: BioMAP Diversity Plus: CASM3C Assay for Vascular cell adhesion molecule 1 (VCAM1) Biomarker Activity (AID 2283055);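 also: VCAM-1 protein level quantified by ELISA on the cells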
CONDITION: primary human coronary artery smooth muscle cells; actives raise or lower the signal
Active and inactive are the calls of the source. Rule for the calls: active = hit-call score of the fitted dose curve at least 0.9, where 1 is the maximum; inactive = score below 0.9.
Outcome field: choose from active, inactive

Task: Could you check what this test reported for `CC[C@H](c1ccc(O)cc1)[C@@H](CC)c1ccc(O)cc1` ?
Output: active

Task: // outcome(item) with item = `c1ccc2c(c1)Cc1ccccc1-2`
Output: inactive

Task: Recorded call for `NCC(F)(F)C(F)(F)C(F)(F)C(F)(F)C(F)(F)C(F)(F)C(F)(F)F` ?
Output: inactive

Task: Check the results log: what was the call for `O=c1c(-c2ccc(O)cc2)coc2cc(O)ccc12` ?
Output: inactive

Task: Assay outcome for `CCCCCCCC(=O)O` : what was it?
Output: inactive

Task: What did this assay record as the result for `ClC1=C(Cl)C(Cl)(Cl)C(Cl)=C1Cl` ?
Output: active

Task: Hey, what did the test say about `CCCOc1sc(C(=O)N2CCC(c3cc(CN)ccc3F)CC2)c(C)c1Br` ?
Output: active

Task: I would be grateful if you could indicate the recorded call for `CN1CCN(c2ccccc2/C=C2\SCCN(c3ccc(Cl)c(Cl)c3)C2=O)CC1` .
Output: inactive

Task: Recorded test outcome, item N#C[C@@H]1CC(F)(F)CN1C(=O)CNC1CC2CCC(C1)N2c1ncccn1 (stereo partly drawn)
Output: inactive

Task: Look up the recorded call for `Nc1cccc2c(N)cccc12` in this test.
Output: inactive

Task: Query: recorded result category for `CC(C)(C)c1ccc(O)c(C(C)(C)C)c1` in this test
Output: active

Task: Entry `CCCCOCCO` : call = ?
Output: inactive

Task: What is the recorded call for this compound in the test? `CC(C)(C)c1cc(C(C)(C)C)c(O)c(C(C)(C)C)c1`
Output: inactive

====

Read-out: Urokinase-type plasminogen activator receptor (uPAR), PLAUR (gene 5329)
PROTOCOL TEXT: BSK_4H_uPAR: BioMAP Diversity Plus: 4H Assay for Urokinase-type plasminogen activator receptor (uPAR) Biomarker Activity (AID 2283030)
CONDITION: primary human endothelial cells (HUVEC); actives raise or lower the signal
Active and inactive are the calls of the source. How the source made its calls: active means hit-call score of the fitted dose curve at least 0.9, where 1 is the maximum; inactive means score below 0.9.
MEASURED METRIC: AC50

Some molecules with recorded AC50:
COCC(C)O (stereo unspecified) :: inactive
c1ccc2c(c1)Cc1ccccc1-2 :: inactive
O=c1c(-c2ccc(O)cc2)coc2cc(O)ccc12 :: inactive
CCC(C)(C)C1CCC(O)CC1 (stereo unspecified) :: inactive
CCCCOCCO :: inactive
c1ccc2c(c1)ccc1ccccc12 :: inactive
CN1CCN(c2ccccc2/C=C2\SCCN(c3ccc(Cl)c(Cl)c3)C2=O)CC1 :: 5.49 µM (active)
N#C[C@@H]1CC(F)(F)CN1C(=O)CNC1CC2CCC(C1)N2c1ncccn1 (stereo partly specified) :: inactive

Task: Give reported AC50 value for CCCCC(CC)COC(=O)CCCCC(=O)OCC(CC)CCCC (stereo unspecified)
Output: inactive

Task: Read the entry `CC(C)CCCCCCOC(=O)CCCCC(=O)OCCCCCCC(C)C` and write its reported AC50.
Output: inactive

Task: State its AC50 for this molecule: `CC1=C(/C=C/C(C)=C/C=C/C(C)=C/C(=O)O)C(C)(C)CCC1`
Output: inactive

Task: Give the reported AC50 for this molecule. `CC[C@H](c1ccc(O)cc1)[C@@H](CC)c1ccc(O)cc1`
Output: 26 µM (active)

Task: Recall and state the measured AC50 for `OCCC(F)(F)C(F)(F)C(F)(F)C(F)(F)C(F)(F)C(F)(F)F` .
Output: inactive

Task: Return AC50 (reported value) for this molecule: `CCCCCCCC(=O)O`
Output: inactive

Task: Give AC50 for `C#C[C@]1(O)CC[C@H]2[C@@H]3CCC4=CC(=O)CC[C@@H]4[C@H]3CC[C@@]21C`
Output: 11 µM (active)

Task: Give recorded AC50. `CCCCCCCCCCCCCC[N+](C)(C)C`
Output: inactive

Task: Look up and report measured AC50 for this entry: `CCCOc1sc(C(=O)N2CCC(c3cc(CN)ccc3F)CC2)c(C)c1Br`
Output: 6.64 µM (active)

Task: Determine from records and report AC50 for `Nc1cccc2c(N)cccc12`
Output: inactive

Task: Could you please provide reported AC50 for `CC#C[C@]1(O)CC[C@H]2[C@@H]3CCC4=CC(=O)CCC4=C3[C@@H](c3ccc(N(C)C)cc3)C[C@@]21C` ? Thanks!
Output: 3.97 µM (active)

Task: Name the recorded AC50 of the molecule listed here: `CC(C)(C)c1cccc(C(C)(C)C)c1O`
Output: inactive

====

PROTOCOL TEXT: ATG_Ets_CIS: Attagene CIS-FACTORIAL HepG2 Assay for human Erythroblast Transformation Specific (ETS) (AID 2282941)
CONDITION: HepG2 ETS cis-reporter transcription, actives raise or lower the signal
Description: ATG_CIS is a cell-based, multiplexed-readout assay that uses HepG2, a human liver cell line, with measurements taken at 24 hours after chemical dosing in a 24-well plate.ATG_Ets_CIS is one of 52 assay component(s) measured or calculated from the ATG_CIS assay. […] This assay endpoint, ATG_Ets_CIS, was analyzed with bidirectional fitting relative to DMSO as the negative control and baseline of activity. […]
Activity calls are given as the source filed them. Rule for the calls: active = hit-call score of the fitted dose curve at least 0.9, where 1 is the maximum; inactive = score below 0.9.
Reply using exactly one outcome from active, inactive

Task: Can you look up the reported call for `CC(C)(C)c1cc(C(C)(C)C)c(O)c(C(C)(C)C)c1` for me?
Output: inactive

Task: Assay result, entry CCCCC(CC)COC(=O)CCCCC(=O)OCC(CC)CCCC (stereo unspecified) — outcome?
Output: inactive

Task: What call does the record list for `COc1ccc([N+](=O)[O-])cc1N` ?
Output: inactive

Task: Just curious, what result did CCC(C)(C)C1CCC(O)CC1 (stereo unspecified) get here?
Output: inactive

Task: In this assay, the call recorded for `FC(F)(I)C(F)(F)C(F)(F)C(F)(F)C(F)(F)C(F)(F)I` was what?
Output: active

Task: Query: recorded result category for `CCCCCCCCCCCCc1ccccc1S(=O)(=O)O` in this test
Output: inactive

Task: Record request — test call for `O=C(/C=C/c1ccc(O)cc1)CC(=O)/C=C/c1ccc(O)cc1`
Output: inactive

Task: Status in this test for `CCCCC[C@H](O)CC(=O)CCc1ccc(O)c(OC)c1` ?
Output: inactive

Task: Can you look up the reported call for `CCC(=C(c1ccc(O)cc1)c1ccc(OCCN(C)C)cc1)c1ccccc1` for me?
Output: inactive

Task: Could you check what this test reported for `CN1CCN(c2ccccc2/C=C2\SCCN(c3ccc(Cl)c(Cl)c3)C2=O)CC1` ?
Output: inactive

Task: Per the records of this test, what outcome belongs to `O=C1OC2(c3ccccc31)c1cc(Br)c(O)c(Br)c1Oc1c2cc(Br)c(O)c1Br` ?
Output: inactive

====

Read-out: Matrix Metallopeptidase 1 (MMP1), MMP1 (gene 4312)
PROTOCOL TEXT: BSK_hDFCGF_MMP1: BioMAP Diversity Plus: hDFCGF Assay for Matrix Metallopeptidase 1 (MMP1) Biomarker Activity (AID 2283064)
CONDITION: primary human foreskin fibroblasts; actives raise or lower the signal
Activity calls are given as the source filed them. The calls were made as follows: active = hit-call score of the fitted dose curve at least 0.9, where 1 is the maximum; inactive = score below 0.9.
Would you mind answering with one of these outcomes? class 1 for active, class 0 for inactive

Task: Fill in: this test's call for `CC(C)(C)CC(C)(C)c1ccc(O)c(-n2nc3ccccc3n2)c1` is ___
Output: class 0

Task: Outcome? `COc1ccc([N+](=O)[O-])cc1N`
Output: class 0

Task: Answer briefly: the call reported for NC(=O)N1C(=O)C(C(=O)c2cc(Cl)cs2)c2cc(F)c(Cl)cc21 (centres undefined) in this assay.
Output: class 1

Task: What call does the record list for `CN(C)C=O` ?
Output: class 0

Task: What is the recorded call for this compound in the test? `O=C(O)Cc1cc(I)c(Oc2cc(I)c(O)c(I)c2)c(I)c1`
Output: class 1

Task: # outcome recorded in this test, key = `Nc1cccc2c(N)cccc12`
Output: class 0

Task: Recorded test outcome, item `CCCCCCCCOC(=O)CCCCCCCCC(=O)OCCCCCCCC`
Output: class 0

Task: // outcome(item) with item = `CCCCCCCCCCCCc1ccccc1S(=O)(=O)O`
Output: class 1

Task: Record lookup: outcome of this test for CC(O)CO (centres undefined) ?
Output: class 0

Task: Check the results log: what was the call for `COC(=O)CCCCC(=O)OC` ?
Output: class 0

Task: Field: outcome | Entry: OC1CCC(C2CCCCC2)CC1 (centres undefined)
Output: class 0

Task: Could you check what this test reported for `CCCCCCCCCCCCCCCS(=O)(=O)Oc1ccccc1` ?
Output: class 0

Task: Each compound tested received a call. Report the one for `CC(C)(C)c1cc(C(C)(C)C)c(O)c(C(C)(C)C)c1` .
Output: class 1

Task: What classification did `Cc1cc(CCN2CCN(c3nsc4ccccc34)CC2)cc2c1NC(=O)CC2(C)C` end up with in this test?
Output: class 1
